Assay: Metabolic stability in human liver microsomes assessed as half-life
Format: ADME, Microsome
Conditions: microsomes
property: t1/2
Field note: include the unit after the figure.

Query (compound): O=C(Nc1ccc(F)c(Cl)c1)c1cccc2ccoc12 ; field requested: t1/2
61.2 min

Item: O=C(Nc1ccc(C(F)(F)F)c(Cl)c1)c1cccc2c1OCCO2
44.4 min

# iterate: O=C1CCN(C(=O)Nc2ccc(F)c(Cl)c2)C2CCCCC12 (stereo in doubt; 61)
71 min

Query O=C(Nc1ccc(F)c(Cl)c1)c1cccc2c1OCCO2 next
1.7 min

Also, O=C(Nc1ccc(F)c(Cl)c1)c1cccc2c1OC(F)(F)O2 please.
16.4 min

Repeat for the following compound: O=C1CCN(C(=O)Nc2ccc(F)c(C(F)F)c2)[C@@H]2CCCC[C@H]12
69 min

---

Test system: Hepatitis B virus
Assay: Antiviral activity against HBV infected in mouse AML12HBV10 cells assessed as reduction in viral replication incubated for 48 hrs and measured by [alpha-32P]UTP-labeled radio-probe based dot blot hybridization assay
Assay type: functional, organism-based
Settings: aml12hbv10
property: pEC50
A value of pEC50 is the negative decimal logarithm of a concentration given in moles per litre.

Which pEC50 value is on record for O=C1CCN(C(=O)Nc2ccc(F)c(Cl)c2)[C@H]2CCCC[C@@H]12 (relative stereo) ?
6.15

What do you have for O=C1CCN(C(=O)Nc2ccc(F)c(Cl)c2)C2CCCCC12 (stereo in doubt; 60) ?
5.73

Also check O=C1CCN(C(=O)Nc2ccc(F)c(Cl)c2)C2CCCCC12 (centres undefined)
5.74

// repeat for O=C1CCN(C(=O)Nc2ccc(F)c(Cl)c2)C2CCCCC12 (stereo in doubt; 61) and report
6.34

---

Assay: Cytotoxicity against mouse […] measured by MTT assay
Type: toxicity, cell-based, AML12HBV10
Conditions: aml12hbv10
Please go through the items and note down their CC50.

Please report the recorded CC50 for O=C(Nc1ccc(F)c(Cl)c1)c1cccc2c1OCC2 .
4.6 µM

Also need O=C1CCN(C(=O)Nc2ccc(F)c(C(F)F)c2)[C@@H]2CCCC[C@H]12 , thanks.
> 20 µM

Check N#Cc1cc(NC(=O)N2CCC(=O)[C@H]3CCCC[C@H]32)ccc1F too.
> 20 µM

Then what about the compound O=C(Nc1ccc(O)c(Cl)c1)c1cccc2c1OCCO2 ?
> 100 µM

Same again, this time with O=C(Nc1ccc(F)c(Cl)c1)N1CCOc2ccccc21
> 100 µM

# iterate: O=C(Nc1ccc(F)c(Cl)c1)c1cccc2c1OC(F)(F)O2
> 100 µM

Now the compound N#Cc1ccc(NC(=O)c2cccc3c2OCCO3)cc1Cl
> 50 µM

Also O=C(Nc1ccc(F)c(Cl)c1)c1cccc2ccoc12 , if possible.
> 100 µM

Another compound: O=C1CCN(C(=O)Nc2cccc(Cl)c2)[C@@H]2CCCC[C@H]12
> 20 µM

Would you kindly repeat that for O=C1CCN(C(=O)Nc2ccc(F)c(Cl)c2)c2ccccc21 ?
> 12.5 µM

And O=C(Nc1ccc(F)c(Cl)c1)C1CCCc2ccccc21 (centres undefined) ?
25 µM

Consider next the compound O=C(Nc1ccnc(Cl)c1)c1cccc2c1OCCO2 in the same way.
> 100 µM

Also O=C(Nc1ccc2c(c1)CCC2)c1cccc2c1OCCO2 , if possible.
> 50 µM

Now the same for O=C(Nc1ccc(F)c(Cl)c1)c1cc(S(=O)(=O)N2CCC(O)CC2)cc2c1OCCO2
> 50 µM

Next up: O=C1CCN(C(=O)Nc2ccc(F)c(Cl)c2)c2ccc(Cl)cc21
> 100 µM

And for O=C(Nc1ccc(F)c(Cl)c1)c1cccc2nccnc12 ?
> 12.5 µM

Repeat with O=C1CCCN(C(=O)Nc2ccc(F)c(Cl)c2)c2ccccc21
> 100 µM

Then what about the compound O=C(Nc1ccc(F)c(Cl)c1)N1CCOc2cccnc21 ?
26.3 µM

Next up: O=C(CC1COCCO1)Nc1ccc(F)c(Cl)c1 (centres undefined)
> 100 µM

Proceed to O=C1CCN(C(=O)Nc2ccnc(Cl)n2)[C@@H]2CCCC[C@H]12
> 100 µM

Okay, and O=C(Nc1cc(Cl)nc(Cl)c1)c1cccc2c1OCCO2 ?
> 33.3 µM

Follow-up entry: O=C(Nc1ccc(C(F)(F)F)c(Cl)c1)c1cccc2c1OCCO2
> 50 µM

Would you kindly repeat that for O=C1CCN(C(=O)Nc2cc(F)c(F)c(F)c2)[C@@H]2CCCC[C@H]12 ?
> 100 µM

Repeat for the following compound: O=C1CCN(C(=O)Nc2ncc(F)c(Cl)n2)[C@@H]2CCCC[C@H]12
> 50 µM

Lookup O=C1CC2CCC(C1)N2C(=O)Nc1ccc(F)c(Cl)c1
> 100 µM

What about this compound? O=C1CCN(C(=O)Nc2ccc(F)c(Cl)c2)C(Cc2ccccc2)C1 (centres undefined)
> 20 µM

Consider next the compound O=C1CCN(C(=O)Nc2ccc(F)c(C(F)(F)F)c2)[C@@H]2CCCC[C@H]12 in the same way.
> 20 µM

// next record Cc1cc(NC(=O)N2CCC(=O)[C@H]3CCCC[C@H]32)ccc1F
> 20 µM

Next compound: O=C(Nc1cc(F)c(F)c(F)c1)c1cccc2c1OCCO2
> 100 µM

And for CCC(C)NS(=O)(=O)c1cc2c(c(C(=O)Nc3ccc(F)c(Cl)c3)c1)OCCO2 (centres undefined) ?
> 33.3 µM

Follow-up item: O=C(Nc1ccc2c(c1)OCO2)c1cccc2c1OCCO2
> 100 µM

Try this compound too: O=C1CC(c2ccccc2)N(C(=O)Nc2ccc(F)c(Cl)c2)c2ccccc21 (centres undefined)
> 50 µM

Also, O=C(Nc1ccc(F)c(Cl)c1)c1cccc2cc[nH]c12 please.
> 33.3 µM

For O=C1CCN(C(=O)Nc2ccc(F)c(Cl)c2)C(c2ccccc2)C1 (centres undefined) then?
> 100 µM
